# Experimental Protocol: MTT cytotoxicity assay, HMC3 cells
# Assay type: cell-based
# Condition Parameters: human, 0.1−100 μM, 28 h treatment, read-out: IC50 (cytotoxicity, MTT viability)
Quantity Measured: IC50 at 28 h

Here's what some known entries look like.
Compound	IC50 at 28 h
O=[N+]([O-])c1cccc2nc(/C=C/c3cc4ccccc4nc3N3CCOCC3)ccc12 [VB-037]	> 100 µM
CCCCC/C=C\C/C=C\C/C=C\C/C=C\CCCC(=O)Nc1ccc(O)cc1 [AM404, reference compound]	84 µM

Note to self: IC50 at 28 h recorded for CC(=O)/C(=C/c1ccccc1[N+](=O)[O-])Cc1c[nH]c2ccccc12 [NC009-1] was > 100 µM

IC50 at 28 h measured on O=C(c1ccccc1)c1cc2c(O)cccc2oc1=O [LM-031, 3-benzoyl-5-hydroxychromen-2-one] = > 100 µM
